- Test system: OVCAR-3
- Test: NCI tumour cell line growth inhibition, 48 h
The source made the active and inactive calls. Cut-off read from the data, not from the text of the source: active = GI50 up to about 1.1 µM and inactive = higher.
Returns: one label drawn from YES for active, NO for inactive

Request: Outcome logged for `COc1cc2ccccc2c2cc([N+](=O)[O-])oc12` in this assay:
Result: NO

Continuing:
Request: Outcome logged for COC(O)C(=O)c1c2c(cc3c1CCC3)CCCC2 (stereo unspecified) in this assay:
Result: NO

Request: Outcome logged for `CC(=O)N(C(C)=O)c1c(N)n(C)c(=O)[nH]c1=O` in this assay:
Result: NO

Request: Outcome logged for C=C1C[C@H](O)[C@H]2C(C[Se]c3ccccc3)C(=O)O[C@@H]2[C@H]2[C@H](C)C(O)C[C@@H]12 (stereo partly specified) in this assay:
Result: NO

Request: Outcome logged for CCOC(C)OCC#CCCBr (stereo unspecified) in this assay:
Result: NO

Request: Outcome logged for `C/C(=N\NC(=O)c1ccncc1)c1ccccc1Cl` in this assay:
Result: NO
